- system-under-test: T1, full length recombinant human 2N4R tau (amino acids 1-441) (human, UniProt P10636 1-758)
- T1 construct: Bought (rPeptide); recombinant, non-phosphorylated; also called recombinant tau
- T1 sequence (P10636 other isoform, or with tags, fused parts or gaps limits assumed): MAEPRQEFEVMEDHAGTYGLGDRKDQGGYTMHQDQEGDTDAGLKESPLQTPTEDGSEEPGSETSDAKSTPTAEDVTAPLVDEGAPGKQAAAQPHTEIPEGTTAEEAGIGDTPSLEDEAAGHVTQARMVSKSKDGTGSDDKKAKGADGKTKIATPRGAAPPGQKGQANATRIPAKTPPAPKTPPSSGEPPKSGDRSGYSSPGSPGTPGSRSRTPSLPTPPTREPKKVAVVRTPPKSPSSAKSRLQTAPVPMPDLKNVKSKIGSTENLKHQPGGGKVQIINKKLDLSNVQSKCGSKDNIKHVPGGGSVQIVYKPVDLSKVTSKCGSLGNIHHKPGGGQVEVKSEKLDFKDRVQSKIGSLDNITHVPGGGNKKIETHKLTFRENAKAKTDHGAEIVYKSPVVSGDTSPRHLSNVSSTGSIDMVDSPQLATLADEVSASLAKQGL
- assay: SPR Biacore SCK, IgG on Protein A, tau analyte
endpoint-name: Relative KD
In your response, put the unit directly after the numeric value.

q: Suppose we examine the binder Clone 14 (VH1Vκ1), humanised variant of clone #28, human IgG1 (antibody, V domains shown, also called VH1VK1) VH: QSLQESGGGLVKPSETLSLTCTVSGFSLNNYDMSWVRQAPGKGLEWIGTVSTTYRRYYASWAKGRFTISKTSSTTVDLKMTSLTAEDTATYFCAASGIWGRGTLVTVSS VL: AQVLTQSTSPLSASVGDRVTITCQSSQRVYSNYLAWYQQKPGQPPKRLIFLASTLESGVPSRFSGSGSGTEFTLTISSLQCDDFATYYCAGTYTGSIWAFGGGTEVVIK ; what Relative KD value has been reported?
a: 0.81 fold vs VH0VK0

Continue with the next binder.
q: Consider the binder Clone 35 (VH6Vκ2), humanised variant of clone #28, human IgG1 (antibody, V domains shown, also called VH6VK2) VH: QVQLQESGPGLVKPSETLSLTCTVSGFSLNNYDMSWVRQAPGKGLEWIGTVSTTYRRYYADSVKGRFTISRDNSKNTLDLQMTSLTAEDTATYFCAASGIWGRGTLVTVSS VL: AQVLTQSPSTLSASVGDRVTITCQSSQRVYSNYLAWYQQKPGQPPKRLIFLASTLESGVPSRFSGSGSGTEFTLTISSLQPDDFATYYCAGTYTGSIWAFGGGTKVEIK and give its measured Relative KD.
a: 4.9 fold vs VH0VK0
